Hey, just so you know, these numbers are from ChEMBL document CHEMBL3137667.

- assay: Proposed mechanism(s) of liver damage. [column 'MEC' in source]
- measurement-parameters: human

compound: CC(=O)Nc1ccc(OCC(O)CNC(C)C)cc1 (stereo not given)
Hepatotoxicity (mechanism): Allergic

compound: NCC1(CC(=O)O)CCCCC1
Hepatotoxicity (mechanism): Allergic

compound: CNNCc1ccc(C(=O)NC(C)C)cc1
Hepatotoxicity (mechanism): Allergic

compound: CCCN(CCC)C(=O)Cc1c(-c2ccc(Cl)cc2)nc2ccc(Cl)cn12
Hepatotoxicity (mechanism): Allergic

compound: CCOC(N)=O
Hepatotoxicity (mechanism): Dose-dependant

compound: c1ccc2c(CCC3CCNCC3)c[nH]c2c1
Hepatotoxicity (mechanism): Allergic

compound: CC(=O)OCC1=C(C(=O)O)N2C(=O)[C@@H](NC(=O)CSc3ccncc3)[C@H]2SC1
Hepatotoxicity (mechanism): Allergic

compound: Cc1onc(-c2ccccc2Cl)c1C(=O)N[C@@H]1C(=O)N2[C@@H]1SC(C)(C)[C@@H]2C(=O)O
Hepatotoxicity (mechanism): Allergic

compound: O=C(NO)c1ccc(O)c(O)c1
Hepatotoxicity (mechanism): Dose-dependant

compound: Cc1ccc(C)c(OCCCC(C)(C)C(=O)O)c1
Hepatotoxicity (mechanism): Dose-dependant

compound: COc1cnc(NS(=O)(=O)c2ccc(N)cc2)nc1
Hepatotoxicity (mechanism): Allergic

compound: CS(=O)(=O)c1ccc([C@@H](O)[C@@H](CO)NC(=O)C(Cl)Cl)cc1
Hepatotoxicity (mechanism): Allergic

compound: CC(C)(O)c1ccccc1CC[C@@H](SCC1(CC(=O)O)CC1)c1cccc(/C=C/c2ccc3ccc(Cl)cc3n2)c1
Hepatotoxicity (mechanism): Allergic

compound: CCC1NC(=O)c2cc(S(N)(=O)=O)c(Cl)cc2N1 (stereo not given)
Hepatotoxicity (mechanism): Allergic

compound: CCCCOCC(CN1C(=O)NC(=O)C(CC)(c2ccccc2)C1=O)OC(N)=O (stereo not given) [FEBARBAMATE]
Hepatotoxicity (mechanism): Allergic

compound: COC(=O)C1=C(C)NC(C)=C(C(=O)OC)C1c1ccccc1[N+](=O)[O-]
Hepatotoxicity (mechanism): Allergic
